The measurements presented in this section are drawn from ChEMBL document CHEMBL1136544.

assay: Inhibitory activity against Fructose-1,6-bisphosphatase (F16BPase) in rabbit liver; format: tissue-based, Oryctolagus cuniculus
METRIC: pIC50
pIC50 is a log-scale quantity: -log10 of the concentration expressed in molar.

Give the measured pIC50 of `O=C(O)CCc1c(C(=O)O)[nH]c2cc(Cl)cc(Cl)c12` .
6.68

* * *

test: Inhibitory activity against Fructose-1,6-bisphosphatase (F16BPase) in rat liver; assay type: tissue-based
METRIC: pIC50
pIC50 is a log-scale quantity: -log10 of the concentration expressed in molar.

Give the measured pIC50 of `O=C(O)CCc1c(C(=O)O)[nH]c2cc(Cl)cc(Cl)c12` .
4.96

* * *

Quick reference: IC50 of the listed items.
assay: Inhibitory activity against Fructose-1,6-bisphosphatase (F16BPase) in human liver; assay type: tissue-based
Could you give me the number in µM? Just the number is fine.

Would you please look over these solved cases?
SMILES_ENTRY: NC(=O)CCc1c(C(=O)O)[nH]c2cc(Cl)cc(Cl)c12
IC50 [µM]: 2.2
--
SMILES_ENTRY: O=C(O)CCCCc1c(C(=O)O)[nH]c2cc(Cl)cc(Cl)c12
IC50 [µM]: 1.2
--
SMILES_ENTRY: O=C(O)CCCc1c(C(=O)O)[nH]c2cc(Cl)cc(Cl)c12
IC50 [µM]: 1
--
SMILES_ENTRY: O=C(CCc1c(C(=O)O)[nH]c2cc(Cl)cc(Cl)c12)NO
IC50 [µM]: 1.5

# next molecule below
Give the measured IC50 of `O=C(O)Cc1c(C(=O)O)[nH]c2cc(Cl)cc(Cl)c12` .
2.5

* * *

target: Fructose-1,6-bisphosphatase 1 (Sus scrofa)
Sequence (P00636 whole entry): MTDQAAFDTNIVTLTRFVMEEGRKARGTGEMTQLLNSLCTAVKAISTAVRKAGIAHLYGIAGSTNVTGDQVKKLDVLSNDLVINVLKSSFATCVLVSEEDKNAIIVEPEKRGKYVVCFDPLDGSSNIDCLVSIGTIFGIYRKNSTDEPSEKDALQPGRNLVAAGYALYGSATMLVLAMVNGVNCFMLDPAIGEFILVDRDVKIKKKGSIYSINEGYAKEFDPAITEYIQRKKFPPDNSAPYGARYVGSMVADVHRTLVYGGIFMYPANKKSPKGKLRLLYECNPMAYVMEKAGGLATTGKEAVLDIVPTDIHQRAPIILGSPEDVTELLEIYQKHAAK
METRIC: IC50 (µM)
Could you give me the number in µM? Just the number is fine.

Can you look up IC50 on Fructose-1,6-bisphosphatase 1 (Sus scrofa) for `O=C(O)CCc1c(C(=O)O)[nH]c2cc(Cl)cc(Cl)c12` ?
1

* * *

assay: Inhibitory activity against Fructose-1,6-bisphosphatase (F16BPase) in human liver; assay type: tissue-based
METRIC: IC50

Would you please look over these solved cases?
SMILES_ENTRY: O=C(O)c1[nH]c2cc(Cl)cc(Cl)c2c1CCCO
IC50: 2.7 µM

SMILES_ENTRY: Cn1c(C(=O)O)c(CCC(=O)O)c2c(Cl)cc(Cl)cc21
IC50: > 10 µM

SMILES_ENTRY: O=C(O)CCc1c(CO)[nH]c2cc(Cl)cc(Cl)c12
IC50: > 10 µM

SMILES_ENTRY: CN(C)C(=O)c1[nH]c2cc(Cl)cc(Cl)c2c1CCC(=O)O
IC50: > 10 µM

SMILES_ENTRY: CN(C)C(=O)CCc1c(C(=O)O)[nH]c2cc(Cl)cc(Cl)c12
IC50: 1.7 µM

Give the measured IC50 of `COC(=O)CCc1c(C(=O)O)[nH]c2cc(Cl)cc(Cl)c12` .
7 µM

* * *

Quick reference: pIC50 of the listed items.
experiment: Inhibitory activity against Fructose-1,6-bisphosphatase (F16BPase) in human liver; format: tissue-based
pIC50: −log10 of the molar value.

Would you please look over these solved cases?
SMILES_ENTRY: NC(=O)c1[nH]c2cc(Cl)cc(Cl)c2c1CCC(=O)O
MEASURED_RESULT: < 5.00
--
SMILES_ENTRY: CCOC(=O)c1[nH]c2cc(Cl)cc(Cl)c2c1CCC(=O)O
MEASURED_RESULT: < 5.00

# next compound below
Give the measured pIC50 of `O=C(O)CCc1c(C(=O)NO)[nH]c2cc(Cl)cc(Cl)c12` .
< 5.00
